Tested on: in vivo angiogenesis, blood vessel count
Experiment: reduction of blood vessel formation in vivo – HTS, in vivo study (AID 732);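 note: zebrafish embryos dosed at one day post fertilization; 0% = reference inhibitor and 100% = plate mean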
Settings: active compounds read low;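 tested at 30 µM in the well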
Readout Label: vessel count % control (%)
Numbers only, in %.

// for each molecule in input: emit vessel count % control
1. CCCN(CCC)CCc1cccc2c1CC(=O)N2
2. CN(C)CCC=C1c2ccccc2C=Cc2ccccc21
3. C[C@H](N)CN1CCc2ccc(Br)cc21
4. N[C@@H](Cc1c[nH]c2ccc(O)cc12)C(=O)O
5. CC(CN(C)C)CN1c2ccccc2CCc2ccccc21 (centres undefined)
6. CCn1ccnc1CC1COc2ccccc2O1 (centres undefined)

96.5
82.4
126
81.8
97.1
100

Respectfully, I request vessel count % control for each entry included below.
1. O=C1NC(O)=NC1(c1ccccc1)c1ccccc1
2. Oc1ccc2c3c1O[C@H]1[C@@H](O)CC[C@@]4(O)C(C2)N(CC2CCC2)CCC314 (some centres undefined)
3. CC[C@@H](C)[C@H]1O[C@]2(CC[C@@H]1C)C[C@@H]1C[C@@H](C/C=C(\C)[C@@H](O[C@H]3C[C@H](OC)[C@@H](O[C@H]4C[C@H](OC)[C@@H](O)[C@H](C)O4)[C@H](C)O3)[C@@H](C)/C=C/C=C3\CO[C@@H]4[C@H](O)C(C)=C[C@@H](C(=O)O1)[C@]34O)O2
4. O=c1[nH]cc(F)c(=O)[nH]1
5. NC(Cn1oc(=O)[nH]c1=O)C(=O)O (centres undefined)
6. C=C/C(C)=C/[C@@]1(C)SC(=O)C(C)=C1O
7. C[N+](C)(C)CCC(=O)c1cccc2ccccc12

[106, 81.2, 78.7, 111, 129, 97.7, 0]

Find the recorded vessel count % control belonging to CCN(CC)C(=O)N[C@@H]1C[C@@H]2c3cccc4[nH]cc(c34)C[C@H]2N(C)C1 and report it.
111
